B1: library; numbered along this chain (parent)
chain: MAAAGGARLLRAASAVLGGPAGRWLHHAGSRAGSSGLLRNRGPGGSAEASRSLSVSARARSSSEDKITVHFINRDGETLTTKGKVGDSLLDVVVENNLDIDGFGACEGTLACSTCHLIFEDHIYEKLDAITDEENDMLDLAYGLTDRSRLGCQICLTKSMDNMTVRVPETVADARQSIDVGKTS

- Variants of: B1
- ASSAY_NOTES: scaled log2 fold change in cell abundance, elesclomol vs control (0 = silent mean, 1 = nonsense mean) (scaled log2 ratio); higher = higher viability under elesclomol (loss of FDX1 cuproptosis function);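 further: variant abundance is its share of total variant reads in each endpoint sample, from next-generation sequencing of the integrated ORF PCR-amplified out of genomic DNA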
- CONDITION_LABEL: with HEK293T FDX1 KO; elesclomol 40 nM; glucose 10 mM; 11 days
Class 1 (yes): scaled log2 fold change at least -0.03. Class 0 (no): scaled log2 fold change below -0.03.

INSERT INTO assay_data (variant_notation, qualitative_label) VALUES
  ('I130L', '0 (no)'),
  ('A59E', '1 (yes)'),
  ('V93M', '1 (yes)'),
  ('F103P', '1 (yes)'),
  ('S50R', '1 (yes)'),
  ('D139Y', '1 (yes)'),
  ('E77C', '1 (yes)'),
  ('S35M', '1 (yes)'),
  ('L38S', '0 (no)'),
  ('D136A', '1 (yes)'),
  ('S184F', '0 (no)'),
  ('T164K', '1 (yes)'),
  ('T170Q', '0 (no)'),
  ('D128V', '0 (no)'),
  ('A28E', '0 (no)'),
  ('T183W', '1 (yes)'),
  ('M163W', '1 (yes)'),
  ('L79C', '0 (no)'),
  ('D139W', '0 (no)'),
  ('E95W', '0 (no)'),
  ('S52T', '0 (no)'),
  ('D65E', '1 (yes)'),
  ('I154N', '1 (yes)'),
  ('R11T', '0 (no)'),
  ('S159P', '0 (no)'),
  ('A28I', '1 (yes)'),
  ('G102K', '0 (no)'),
  ('G108L', '1 (yes)'),
  ('D101S', '0 (no)'),
  ('R147T', '0 (no)'),
  ('V55R', '1 (yes)'),
  ('A12Q', '1 (yes)'),
  ('D99K', '0 (no)'),
  ('A15W', '0 (no)'),
  ('D99N', '0 (no)'),
  ('S177V', '1 (yes)'),
  ('V93W', '1 (yes)'),
  ('R175P', '1 (yes)'),
  ('L79A', '1 (yes)'),
  ('D139A', '0 (no)'),
  ('V85M', '0 (no)'),
  ('M160C', '0 (no)'),
  ('V165W', '1 (yes)'),
  ('A4C', '0 (no)'),
  ('W24S', '0 (no)'),
  ('G104D', '1 (yes)'),
  ('M163G', '0 (no)'),
  ('G33S', '0 (no)'),
  ('L53V', '0 (no)'),
  ('I72P', '1 (yes)'),
  ('C106G', '1 (yes)'),
  ('T80G', '0 (no)'),
  ('A129C', '1 (yes)'),
  ('N97S', '1 (yes)'),
  ('G143S', '1 (yes)'),
  ('T170Y', '0 (no)'),
  ('N96R', '0 (no)'),
  ('V180Q', '1 (yes)'),
  ('S88T', '0 (no)'),
  ('T81I', '1 (yes)'),
  ('F119D', '1 (yes)'),
  ('G143T', '0 (no)'),
  ('N40G', '0 (no)'),
  ('L10W', '1 (yes)'),
  ('G33M', '0 (no)'),
  ('D136P', '1 (yes)'),
  ('S56N', '1 (yes)'),
  ('T157L', '0 (no)'),
  ('A12H', '1 (yes)'),
  ('E120D', '1 (yes)'),
  ('T145E', '0 (no)'),
  ('D136E', '1 (yes)'),
  ('R11V', '0 (no)'),
  ('R149G', '1 (yes)'),
  ('N73P', '0 (no)'),
  ('S177W', '1 (yes)'),
  ('E169C', '0 (no)'),
  ('Y142H', '1 (yes)'),
  ('K126Y', '1 (yes)'),
  ('E134K', '1 (yes)'),
  ('A28P', '1 (yes)'),
  ('K82V', '1 (yes)'),
  ('T170H', '0 (no)'),
  ('G181D', '0 (no)'),
  ('L37A', '1 (yes)'),
  ('M160G', '1 (yes)'),
  ('H122P', '0 (no)'),
  ('T145C', '0 (no)'),
  ('S184H', '1 (yes)'),
  ('R60D', '1 (yes)'),
  ('L117I', '0 (no)');

src = the supplement of paper PMC12855868
